These entries and their values trace back to ChEMBL document CHEMBL1141522.

- test-protocol: Half life in po dosed rat
- Assay type: ADME, organism-based
- condition-description: in vivo

- smiles-entry: "Cc1cc[n+]([O-])c(C)c1C(=O)N1CCC(C)(N2CCC(N(c3ccccc3)c3cccnc3)CC2)CC1"
  unit-string: "h"
  half-life: 8.1

----------
- test-protocol: Cmax in cynomolgus monkey at 1 mg/kg, po
- Assay type: ADME, organism-based, Macaca fascicularis
- Parameters: dose 1 mg/kg, route oral
- condition-description: in vivo

- smiles-entry: "Cc1cc[n+]([O-])c(C)c1C(=O)N1CCC(C)(N2CCC(N(c3ccccc3)c3cccnc3)CC2)CC1"
  unit-string: "ng/mL"
  Cmax: 93

----------
- test-protocol: Oral bioavailability in cynomolgus monkey
- Type: ADME, organism-based, Macaca fascicularis
- condition-description: in vivo
property: bioavailability (%)

- smiles-entry: "Cc1cc[n+]([O-])c(C)c1C(=O)N1CCC(C)(N2CCC(N(c3ccccc3)c3cccnc3)CC2)CC1"
  measured-result: 43

----------
- test-protocol: Lipophilicity, log D at pH 6.8
- Assay type: physicochemical
- condition-description: buffer

- smiles-entry: "Cc1cc[n+]([O-])c(C)c1C(=O)N1CCC(C)(N2CCC(N(c3ccccc3)c3cccnc3)CC2)CC1"
  logD: 0.8

----------
- test-target: Cytochrome P450 3A4 (Homo sapiens, UniProt P08684)
- Sequence (P08684 whole entry): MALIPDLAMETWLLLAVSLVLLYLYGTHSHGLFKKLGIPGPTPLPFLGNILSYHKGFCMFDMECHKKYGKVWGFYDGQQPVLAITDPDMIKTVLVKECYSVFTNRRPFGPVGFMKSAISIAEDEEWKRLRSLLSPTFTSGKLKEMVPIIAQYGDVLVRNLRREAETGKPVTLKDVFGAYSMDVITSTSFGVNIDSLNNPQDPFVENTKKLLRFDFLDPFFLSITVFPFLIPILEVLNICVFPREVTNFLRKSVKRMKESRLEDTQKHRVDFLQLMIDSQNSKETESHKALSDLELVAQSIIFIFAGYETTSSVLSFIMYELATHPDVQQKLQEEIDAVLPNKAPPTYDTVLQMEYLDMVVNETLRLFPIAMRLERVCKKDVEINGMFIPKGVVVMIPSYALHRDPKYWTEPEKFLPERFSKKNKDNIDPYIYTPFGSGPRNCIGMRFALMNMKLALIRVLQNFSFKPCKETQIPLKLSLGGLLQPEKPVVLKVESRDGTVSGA
- test-protocol: Inhibition of CYP3A4
- Assay type: ADME
property: IC50 (µM)

- smiles-entry: "Cc1cc[n+]([O-])c(C)c1C(=O)N1CCC(C)(N2CCC(N(c3ccccc3)c3cccnc3)CC2)CC1"
  property: "IC50"
  measured-result: 5.3

----------
- test-protocol: Permeability from apical to basolateral side of human Caco-2 cell membranes
- Format: ADME, cell-based
- condition-description: read-out: permeability (converted)

- smiles-entry: "Cc1cc[n+]([O-])c(C)c1C(=O)N1CCC(C)(N2CCC(N(c3ccccc3)c3cccnc3)CC2)CC1"
  Papp A→B: "0.667 ×10⁻⁶ cm/s"

----------
- test-protocol: Half life in po dosed dog
- Format: ADME, organism-based, Canis lupus familiaris
- condition-description: in vivo

- smiles-entry: "Cc1cc[n+]([O-])c(C)c1C(=O)N1CCC(C)(N2CCC(N(c3ccccc3)c3cccnc3)CC2)CC1"
  half-life (h): 7.9

----------
- test-protocol: Cmax in dog at 1 mg/kg, po
- Assay type: ADME, organism-based, Canis lupus familiaris
- Parameters: dose 1 mg/kg, route oral
- condition-description: in vivo

- smiles-entry: "Cc1cc[n+]([O-])c(C)c1C(=O)N1CCC(C)(N2CCC(N(c3ccccc3)c3cccnc3)CC2)CC1"
  Cmax / µg/mL: 0.084

----------
- test-protocol: Mean residence time in cynomolgus monkey
- Format: ADME, organism-based, Macaca fascicularis
- condition-description: in vivo

- smiles-entry: "Cc1cc[n+]([O-])c(C)c1C(=O)N1CCC(C)(N2CCC(N(c3ccccc3)c3cccnc3)CC2)CC1"
  MRT [h]: 6

----------
- test-target: Cytochrome P450 2C9 (Homo sapiens, UniProt P11712)
- Sequence (P11712 whole entry): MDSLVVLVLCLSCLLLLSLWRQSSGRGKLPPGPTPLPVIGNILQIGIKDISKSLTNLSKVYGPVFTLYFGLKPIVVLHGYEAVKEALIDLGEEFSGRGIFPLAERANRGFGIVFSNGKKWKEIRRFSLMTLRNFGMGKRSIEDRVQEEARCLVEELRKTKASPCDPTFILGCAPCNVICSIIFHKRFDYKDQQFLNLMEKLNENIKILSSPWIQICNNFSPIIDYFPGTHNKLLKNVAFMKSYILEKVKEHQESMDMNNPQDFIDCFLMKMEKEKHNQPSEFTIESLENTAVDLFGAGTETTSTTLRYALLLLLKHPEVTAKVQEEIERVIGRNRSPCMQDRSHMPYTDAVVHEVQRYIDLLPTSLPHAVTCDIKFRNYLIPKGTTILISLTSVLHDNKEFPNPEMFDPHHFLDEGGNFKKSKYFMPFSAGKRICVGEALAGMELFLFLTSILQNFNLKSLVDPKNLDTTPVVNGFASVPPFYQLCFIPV

- smiles-entry: "Cc1cc[n+]([O-])c(C)c1C(=O)N1CCC(C)(N2CCC(N(c3ccccc3)c3cccnc3)CC2)CC1"
  test-target: "Cytochrome P450 2C9 (Homo sapiens, UniProt P11712)"
  IC50: "> 10 µM"

----------
- test-target: Cytochrome P450 2D6 (Homo sapiens, UniProt P10635)
- Sequence (P10635 whole entry): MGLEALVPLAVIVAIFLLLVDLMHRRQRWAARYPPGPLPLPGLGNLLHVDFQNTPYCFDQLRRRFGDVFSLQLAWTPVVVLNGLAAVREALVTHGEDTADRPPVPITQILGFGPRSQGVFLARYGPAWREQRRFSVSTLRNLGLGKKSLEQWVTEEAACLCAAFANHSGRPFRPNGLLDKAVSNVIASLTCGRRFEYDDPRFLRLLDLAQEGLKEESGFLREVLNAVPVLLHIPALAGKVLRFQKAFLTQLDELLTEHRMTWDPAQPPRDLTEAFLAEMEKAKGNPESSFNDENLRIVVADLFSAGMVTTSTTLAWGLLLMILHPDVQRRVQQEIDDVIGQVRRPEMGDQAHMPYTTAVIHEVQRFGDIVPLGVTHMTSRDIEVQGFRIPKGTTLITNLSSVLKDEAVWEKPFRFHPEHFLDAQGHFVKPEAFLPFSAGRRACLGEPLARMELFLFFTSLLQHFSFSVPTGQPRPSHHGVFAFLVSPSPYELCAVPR

- smiles-entry: "Cc1cc[n+]([O-])c(C)c1C(=O)N1CCC(C)(N2CCC(N(c3ccccc3)c3cccnc3)CC2)CC1"
  IC50: "> 10 µM"

----------
- test-target: Cytochrome P450 2C19 (Homo sapiens, UniProt P33261)
- Sequence (P33261 whole entry): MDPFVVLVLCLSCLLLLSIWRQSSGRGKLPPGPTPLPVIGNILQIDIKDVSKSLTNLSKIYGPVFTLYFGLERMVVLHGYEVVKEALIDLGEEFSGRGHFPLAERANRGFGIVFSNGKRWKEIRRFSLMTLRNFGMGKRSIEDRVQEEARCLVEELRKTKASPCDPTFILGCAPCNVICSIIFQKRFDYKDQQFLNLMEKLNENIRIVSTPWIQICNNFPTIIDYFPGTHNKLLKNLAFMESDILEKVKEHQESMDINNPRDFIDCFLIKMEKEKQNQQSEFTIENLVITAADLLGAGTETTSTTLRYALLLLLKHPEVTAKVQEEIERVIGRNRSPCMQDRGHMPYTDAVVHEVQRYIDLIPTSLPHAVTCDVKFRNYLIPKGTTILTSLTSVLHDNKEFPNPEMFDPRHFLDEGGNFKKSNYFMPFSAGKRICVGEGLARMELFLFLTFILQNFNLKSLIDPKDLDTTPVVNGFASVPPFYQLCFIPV

- smiles-entry: "Cc1cc[n+]([O-])c(C)c1C(=O)N1CCC(C)(N2CCC(N(c3ccccc3)c3cccnc3)CC2)CC1"
  IC50: "> 10 µM"

----------
- test-protocol: Permeability from basolateral to apical side of human Caco-2 cell membranes
- Assay type: ADME, cell-based
- condition-description: read-out: permeability (converted)

- smiles-entry: "Cc1cc[n+]([O-])c(C)c1C(=O)N1CCC(C)(N2CCC(N(c3ccccc3)c3cccnc3)CC2)CC1"
  unit-string: "×10⁻⁶ cm/s"
  Papp B→A: 10.8

----------
- test-target: C-C chemokine receptor type 5 (Macaca fascicularis)
- test-protocol: Displacement of radiolabeled MIP-1alpha from cynomolgus monkey CCR5 expressed in CHO cells
- Format: cell-based
pIC50: −log10 of the molar value.
Would you mind labelling by pIC50? At or over 8 is true, under is false.

- smiles-entry: "Cc1ccnc(C)c1C(=O)N1CCC(C)(N2CCC(N(c3ccccc3)c3cccnc3)CC2)CC1"
  assigned-class: "true"
- smiles-entry: "CC1(N2CCC(N(c3ccccc3)c3cccnc3)CC2)CCN(C(=O)c2c(Cl)cncc2Cl)CC1"
  assigned-class: "true"
- smiles-entry: "Cc1cccnc1C(=O)N1CCC(C)(N2CCC(N(c3ccccc3)c3cccnc3)CC2)CC1"
  assigned-class: "false"
- smiles-entry: "Cc1cccc(C)c1C(=O)N1CCC(C)(N2CCC(N(c3ccccc3)c3cccnc3)CC2)CC1"
  assigned-class: "true"
- smiles-entry: "CC1(N2CCC(N(c3ccccc3)c3cccnc3)CC2)CCN(C(=O)c2c(Cl)c[n+]([O-])cc2Cl)CC1"
  assigned-class: "true"
- smiles-entry: "Cc1nc(CN(c2ccccc2)C2CCN(C3(C)CCN(C(=O)c4c(C)cc[n+]([O-])c4C)CC3)CC2)cs1"
  assigned-class: "false"

----------
- test-protocol: Tmax in po dosed dog
- Format: ADME, organism-based, Canis lupus familiaris
- condition-description: in vivo

- smiles-entry: "Cc1cc[n+]([O-])c(C)c1C(=O)N1CCC(C)(N2CCC(N(c3ccccc3)c3cccnc3)CC2)CC1"
  Tmax [min]: 36

----------
- test-target: C-C chemokine receptor type 5 (Homo sapiens)
- test-protocol: Antagonist activity at human CCR5 expressed in CHO cells assessed as MIP-1-alpha-induced Ca2+ mobilization
- Type: functional, cell-based
property: IC50 (nM)

- smiles-entry: "Cc1cc[n+]([O-])c(C)c1C(=O)N1CCC(C)(N2CCC(N(c3ccccc3)c3cccnc3)CC2)CC1"
  property: "IC50"
  measured-result: 43.6

----------
- test-protocol: Protein binding in rat plasma
- Format: ADME, cell-free

- smiles-entry: "Cc1cc[n+]([O-])c(C)c1C(=O)N1CCC(C)(N2CCC(N(c3ccccc3)c3cccnc3)CC2)CC1"
  fraction unbound: 0.48

----------
Each record here notes measured IC50.
- test-target: C-C chemokine receptor type 5 (Homo sapiens, UniProt P51681)
- Sequence (P51681 whole entry): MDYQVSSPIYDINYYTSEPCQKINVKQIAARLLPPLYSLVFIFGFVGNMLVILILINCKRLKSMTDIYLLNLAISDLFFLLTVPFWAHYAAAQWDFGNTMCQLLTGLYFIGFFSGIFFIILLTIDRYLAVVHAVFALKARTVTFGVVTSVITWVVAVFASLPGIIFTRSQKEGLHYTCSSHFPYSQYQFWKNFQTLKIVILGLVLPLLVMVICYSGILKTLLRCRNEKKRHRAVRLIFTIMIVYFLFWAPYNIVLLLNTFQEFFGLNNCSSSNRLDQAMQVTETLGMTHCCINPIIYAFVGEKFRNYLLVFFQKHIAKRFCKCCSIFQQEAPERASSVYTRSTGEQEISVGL
- test-protocol: Displacement of [125I]RANTES from human CCR5 expressed in CHO cells
- Type: cell-based
property: IC50

- smiles-entry: "CC1(N2CCC(N(c3ccccc3)c3cccnc3)CC2)CCN(C(=O)c2c(Cl)cncc2Cl)CC1"
  test-target: "C-C chemokine receptor type 5 (Homo sapiens, UniProt P51681)"
  measured-result: "0.8 nM"
- smiles-entry: "Cc1cc[n+]([O-])c(C)c1C(=O)N1CCC(C)(N2CCC(N(c3ccccc3)c3ccccn3)CC2)CC1"
  test-target: "C-C chemokine receptor type 5 (Homo sapiens, UniProt P51681)"
  measured-result: "1.8 nM"
- smiles-entry: "CC1(N2CCC(N(c3ccccc3)c3cccnc3)CC2)CCN(C(=O)c2cccc3ccccc23)CC1"
  test-target: "C-C chemokine receptor type 5 (Homo sapiens, UniProt P51681)"
  measured-result: "1.3 nM"
- smiles-entry: "Cc1cc[n+]([O-])c(C)c1C(=O)N1CCC(C)(N2CCC(N(c3ccccc3)c3cccnc3)CC2)CC1"
  test-target: "C-C chemokine receptor type 5 (Homo sapiens, UniProt P51681)"
  measured-result: "5.1 nM"

----------
- test-target: UniProtKB P51681
- test-protocol: Antagonist activity at human CCR5 expressed in L1.2 cells assessed as MIP-1-alpha-induced Ca2+ mobilization
- Assay type: functional, cell-based
property: IC50 (nM)

- smiles-entry: "Cc1cc[n+]([O-])c(C)c1C(=O)N1CCC(C)(N2CCC(N(c3ccccc3)c3cccnc3)CC2)CC1"
  measured-result: 16.2

----------
Here, each record is paired with measured pIC50 data.
- test-target: Voltage-gated inwardly rectifying potassium channel KCNH2 (Homo sapiens)
- Sequence (Q12809 whole entry): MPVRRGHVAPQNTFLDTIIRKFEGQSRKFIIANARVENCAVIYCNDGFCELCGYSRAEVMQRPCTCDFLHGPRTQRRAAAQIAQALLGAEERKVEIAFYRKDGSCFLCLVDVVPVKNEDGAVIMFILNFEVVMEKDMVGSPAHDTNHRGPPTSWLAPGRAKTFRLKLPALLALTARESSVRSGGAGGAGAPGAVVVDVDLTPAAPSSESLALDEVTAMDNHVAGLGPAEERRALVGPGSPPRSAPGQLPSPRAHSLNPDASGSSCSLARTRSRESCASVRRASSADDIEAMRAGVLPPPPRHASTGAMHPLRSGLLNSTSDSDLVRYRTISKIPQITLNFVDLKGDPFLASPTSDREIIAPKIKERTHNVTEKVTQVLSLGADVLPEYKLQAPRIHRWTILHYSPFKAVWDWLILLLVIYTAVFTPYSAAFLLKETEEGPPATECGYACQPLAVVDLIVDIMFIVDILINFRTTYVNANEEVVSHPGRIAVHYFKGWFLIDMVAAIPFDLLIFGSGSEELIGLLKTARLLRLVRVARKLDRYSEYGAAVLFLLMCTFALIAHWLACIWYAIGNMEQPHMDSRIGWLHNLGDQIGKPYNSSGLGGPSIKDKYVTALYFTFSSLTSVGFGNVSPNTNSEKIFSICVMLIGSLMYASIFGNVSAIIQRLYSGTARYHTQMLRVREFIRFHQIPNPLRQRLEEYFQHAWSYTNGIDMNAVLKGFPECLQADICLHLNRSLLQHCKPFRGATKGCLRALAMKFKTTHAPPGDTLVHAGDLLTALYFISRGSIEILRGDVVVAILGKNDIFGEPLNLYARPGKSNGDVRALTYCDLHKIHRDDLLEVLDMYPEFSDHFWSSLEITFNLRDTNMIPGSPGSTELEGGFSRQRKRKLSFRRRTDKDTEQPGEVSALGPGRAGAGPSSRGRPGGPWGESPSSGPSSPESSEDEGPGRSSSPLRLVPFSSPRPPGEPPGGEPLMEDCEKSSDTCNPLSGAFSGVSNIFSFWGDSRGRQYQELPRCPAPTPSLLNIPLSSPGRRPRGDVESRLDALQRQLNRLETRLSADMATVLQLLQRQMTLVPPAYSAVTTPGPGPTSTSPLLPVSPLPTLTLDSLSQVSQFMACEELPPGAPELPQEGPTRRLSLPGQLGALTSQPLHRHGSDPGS
- test-protocol: Displacement of [3H]dofetilide from human ERG expressed in HEK293 cell membranes
pIC50: −log10 of the molar value.

- smiles-entry: "Cc1nc(CN(c2ccccc2)C2CCN(C3(C)CCN(C(=O)c4c(C)cc[n+]([O-])c4C)CC3)CC2)cs1"
  pIC50: 4.91
- smiles-entry: "Cc1nc[n+]([O-])c(C)c1C(=O)N1CCC(C)(N2CCC(N(c3ccccc3)c3ccccc3)CC2)CC1"
  pIC50: 5.92
- smiles-entry: "Cc1ccnc(C)c1C(=O)N1CCC(C)(N2CCC(N(c3ccccc3)c3ccccc3)CC2)CC1"
  pIC50: 6.24
- smiles-entry: "Cc1cccc(C)c1C(=O)N1CCC(C)(N2CCC(N(c3ccccc3)c3ccccc3)CC2)CC1"
  pIC50: 6.82
- smiles-entry: "Cc1cccc(C)c1C(=O)N1CCC(C)(N2CCC(N(Cc3ccccc3)c3ccccc3)CC2)CC1"
  pIC50: 6.17
